// reported pIC50 for each item listed
Tested on: phosphorylation of H2AX (gH2AX) in U2OS-TopBP1-ER cells
Test: gH2AX-TopBP1ER cellular assay
Type: cell-based
Conditions: Table 1, class symbols, 4-OHT
pIC50: −log10 of the molar value.
readout_kind: pIC50

• C[C@@H]1COC[C@H]2COc3c(nc(-c4c(N)cnc5[nH]ccc45)nc3C(C)(C)O)N21 = 7.00 to 8.00
• C[C@@H]1COC[C@H]2COc3c(nc(-c4ccnc5[nH]ccc45)nc3C(C)(C)O)N21 = 7.00 to 8.00
• Cc1nc2ccccc2n1-c1nc2c(c(C(C)(C)S(C)(=O)=O)n1)OC[C@@H]1COC[C@@H](C)N21 = 6.00 to 7.00
• C[C@@H]1COC[C@H]2COc3c(nc(-n4c(N)nc5ccccc54)nc3C(C)(C)S(C)(=O)=O)N21 = 6.00 to 7.00
• C[C@@H]1COC[C@H]2COc3c(nc(-c4c(N)cnc5[nH]ccc45)nc3C(C)(C)S(C)(=O)=O)N21 = 7.00 to 8.00
• C[C@@H]1COC[C@H]2COc3c(nc(-c4ccnc5[nH]ccc45)nc3C(C)(C)S(C)(=O)=O)N21 = 7.00 to 8.00
• CNc1nc2c(F)cccc2n1-c1nc2c(c(C(C)(C)S(C)(=O)=O)n1)OC[C@@H]1COC[C@@H](C)N21 = 6.00 to 7.00

###

Target: ATR/ATRIP (Homo sapiens, UniProt Q13535)
Construct: human ATR, full length, GenBank ID: NM_001184.3; p53: Sf21 insect cells
Sequence (Q13535 whole entry): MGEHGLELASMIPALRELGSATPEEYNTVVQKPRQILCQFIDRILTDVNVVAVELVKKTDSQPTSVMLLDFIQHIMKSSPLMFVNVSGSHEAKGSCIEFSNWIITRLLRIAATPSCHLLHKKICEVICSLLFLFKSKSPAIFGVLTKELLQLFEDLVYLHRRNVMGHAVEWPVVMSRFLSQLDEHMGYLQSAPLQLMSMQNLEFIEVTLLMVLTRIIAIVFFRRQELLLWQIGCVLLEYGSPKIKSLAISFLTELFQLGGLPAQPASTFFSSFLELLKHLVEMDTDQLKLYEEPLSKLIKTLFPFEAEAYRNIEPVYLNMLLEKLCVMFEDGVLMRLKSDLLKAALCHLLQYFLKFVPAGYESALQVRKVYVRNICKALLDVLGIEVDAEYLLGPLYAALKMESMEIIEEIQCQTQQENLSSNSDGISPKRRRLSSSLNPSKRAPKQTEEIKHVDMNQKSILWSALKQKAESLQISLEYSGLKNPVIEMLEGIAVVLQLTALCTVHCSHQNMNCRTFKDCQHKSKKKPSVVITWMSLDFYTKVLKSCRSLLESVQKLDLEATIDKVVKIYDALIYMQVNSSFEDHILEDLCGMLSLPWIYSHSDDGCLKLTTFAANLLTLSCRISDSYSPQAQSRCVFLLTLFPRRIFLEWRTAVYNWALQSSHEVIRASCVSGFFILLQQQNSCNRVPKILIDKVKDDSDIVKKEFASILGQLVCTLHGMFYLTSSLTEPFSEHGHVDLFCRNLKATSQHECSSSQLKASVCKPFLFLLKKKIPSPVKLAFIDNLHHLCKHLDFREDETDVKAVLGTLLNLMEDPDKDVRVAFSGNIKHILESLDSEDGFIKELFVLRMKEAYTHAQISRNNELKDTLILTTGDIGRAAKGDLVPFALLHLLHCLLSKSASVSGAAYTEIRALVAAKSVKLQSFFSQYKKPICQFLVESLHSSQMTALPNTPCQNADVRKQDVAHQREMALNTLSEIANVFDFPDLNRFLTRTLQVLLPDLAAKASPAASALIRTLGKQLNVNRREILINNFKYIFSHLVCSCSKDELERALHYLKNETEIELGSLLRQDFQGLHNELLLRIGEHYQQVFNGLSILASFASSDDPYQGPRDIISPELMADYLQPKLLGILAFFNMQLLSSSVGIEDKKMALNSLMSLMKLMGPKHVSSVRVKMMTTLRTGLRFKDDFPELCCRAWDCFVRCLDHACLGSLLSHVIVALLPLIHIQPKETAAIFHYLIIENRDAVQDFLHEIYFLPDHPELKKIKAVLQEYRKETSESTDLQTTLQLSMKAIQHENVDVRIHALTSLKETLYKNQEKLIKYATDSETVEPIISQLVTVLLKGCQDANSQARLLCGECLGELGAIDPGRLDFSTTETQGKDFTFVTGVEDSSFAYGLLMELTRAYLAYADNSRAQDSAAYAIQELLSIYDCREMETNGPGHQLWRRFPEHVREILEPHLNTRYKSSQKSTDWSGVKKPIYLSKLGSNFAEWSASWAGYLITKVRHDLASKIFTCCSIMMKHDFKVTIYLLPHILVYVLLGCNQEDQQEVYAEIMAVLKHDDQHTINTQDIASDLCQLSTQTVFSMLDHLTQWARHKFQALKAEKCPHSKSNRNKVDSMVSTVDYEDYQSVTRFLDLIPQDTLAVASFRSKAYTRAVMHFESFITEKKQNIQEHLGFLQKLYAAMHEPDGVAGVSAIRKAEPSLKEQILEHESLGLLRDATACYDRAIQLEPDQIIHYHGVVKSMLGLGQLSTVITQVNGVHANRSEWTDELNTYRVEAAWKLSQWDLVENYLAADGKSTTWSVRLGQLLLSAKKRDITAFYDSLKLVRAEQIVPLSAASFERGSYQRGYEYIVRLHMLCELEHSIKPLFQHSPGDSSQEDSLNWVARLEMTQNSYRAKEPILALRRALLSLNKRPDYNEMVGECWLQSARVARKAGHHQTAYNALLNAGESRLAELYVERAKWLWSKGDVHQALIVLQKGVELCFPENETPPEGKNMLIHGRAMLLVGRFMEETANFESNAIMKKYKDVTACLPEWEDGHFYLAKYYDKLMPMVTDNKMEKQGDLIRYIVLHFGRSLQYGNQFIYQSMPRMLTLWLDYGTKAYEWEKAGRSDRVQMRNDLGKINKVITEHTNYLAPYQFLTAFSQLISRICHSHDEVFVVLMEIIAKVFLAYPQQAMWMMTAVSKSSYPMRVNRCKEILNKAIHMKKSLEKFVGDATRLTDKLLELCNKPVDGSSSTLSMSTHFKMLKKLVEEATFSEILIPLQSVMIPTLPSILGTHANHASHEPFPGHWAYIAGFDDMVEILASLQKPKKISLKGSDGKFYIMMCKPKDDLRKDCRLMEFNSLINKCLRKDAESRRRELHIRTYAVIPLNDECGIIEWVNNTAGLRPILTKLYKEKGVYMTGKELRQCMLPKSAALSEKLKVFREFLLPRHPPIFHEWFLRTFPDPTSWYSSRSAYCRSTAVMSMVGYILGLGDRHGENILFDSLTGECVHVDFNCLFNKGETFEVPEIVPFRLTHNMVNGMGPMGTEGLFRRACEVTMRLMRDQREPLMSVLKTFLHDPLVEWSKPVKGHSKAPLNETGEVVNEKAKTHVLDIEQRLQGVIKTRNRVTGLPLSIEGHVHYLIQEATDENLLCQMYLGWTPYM
Sequence (Q8WXE1 whole entry partner): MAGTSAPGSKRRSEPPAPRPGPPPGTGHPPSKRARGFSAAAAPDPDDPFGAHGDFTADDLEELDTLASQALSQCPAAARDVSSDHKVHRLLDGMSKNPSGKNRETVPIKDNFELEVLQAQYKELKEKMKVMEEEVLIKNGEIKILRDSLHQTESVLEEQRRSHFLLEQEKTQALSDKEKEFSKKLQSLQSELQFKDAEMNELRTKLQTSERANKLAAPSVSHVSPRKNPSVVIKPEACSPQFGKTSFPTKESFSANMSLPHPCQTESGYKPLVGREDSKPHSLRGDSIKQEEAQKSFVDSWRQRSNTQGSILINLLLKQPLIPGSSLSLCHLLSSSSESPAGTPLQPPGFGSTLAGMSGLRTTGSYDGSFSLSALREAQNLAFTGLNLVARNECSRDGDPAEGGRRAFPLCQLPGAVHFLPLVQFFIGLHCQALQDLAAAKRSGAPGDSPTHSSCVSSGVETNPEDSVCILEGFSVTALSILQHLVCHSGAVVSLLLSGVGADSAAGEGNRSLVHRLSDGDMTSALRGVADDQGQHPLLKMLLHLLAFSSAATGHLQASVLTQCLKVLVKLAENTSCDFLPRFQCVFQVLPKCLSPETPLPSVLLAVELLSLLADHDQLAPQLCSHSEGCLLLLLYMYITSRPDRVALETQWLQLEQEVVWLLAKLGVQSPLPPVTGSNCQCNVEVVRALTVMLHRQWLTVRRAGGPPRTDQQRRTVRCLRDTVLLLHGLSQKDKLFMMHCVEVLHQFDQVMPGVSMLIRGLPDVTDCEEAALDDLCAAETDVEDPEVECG
Assay: ATR/ATRIP kinase assay (TR-FRET, p53 phosphorylation)
Assay type: biochemical
Conditions: Table 1, class symbols; read-out: ATR-ATRIP IC50
pIC50: −log10 of the molar value.
readout_kind: pIC50

* CNc1nc2ccccc2n1-c1nc(Cn2cc(C(=O)O)nn2)c2c(n1)N1[C@@H](COC[C@H]1C)CO2 | 6.30 to 7.00
* C[C@@H]1COC[C@H]2COc3c(nc(-c4cccc(C5(N)COC5)c4)nc3C(C)(C)S(C)(=O)=O)N21 | 4.52 to 6.30
* C[C@@H]1COC[C@H]2COc3c(nc(-c4ccnc5[nH]ccc45)nc3C(C)(C)O)N21 | > 9.00
* C[C@@H]1COC[C@H]2COc3c(nc(-c4c(F)cnc5[nH]ccc45)nc3C(C)(C)O)N21 | 8.00 to 9.00
* COc1cnc2[nH]ccc2c1-c1nc2c(c(C(C)(C)S(C)(=O)=O)n1)OC[C@@H]1COC[C@@H](C)N21 | 7.00 to 8.00
* CC(CO)NC(=O)c1nc2c(c(C(C)(C)S(C)(=O)=O)n1)OC[C@@H]1COC[C@@H](C)N21 (stereo partly drawn) | 4.52 to 6.30
* C[C@@H]1COC[C@H]2COc3c(nc(Nc4cn[nH]c4)nc3C(C)(C)S(C)(=O)=O)N21 | 7.00 to 8.00
* C[C@@H]1COC[C@H]2COc3c(nc(C(=O)Nc4ccn[nH]4)nc3C(C)(C)S(C)(=O)=O)N21 | 4.52 to 6.30
* CNc1nc2ccccc2n1-c1nc2c(c(C3(S(C)(=O)=O)CC3)n1)OC[C@@H]1COC[C@@H](C)N21 | > 9.00
* C[C@@H]1COC[C@H]2COc3c(nc(N(C)c4nc5ccccc5[nH]4)nc3C(C)(C)O)N21 | 7.00 to 8.00
* C[C@@H]1COC[C@H]2COc3c(nc(-c4c(F)ncc5[nH]ccc45)nc3C(C)(C)S(C)(=O)=O)N21 | > 9.00
* C[C@@H]1COC[C@H]2COc3c(nc(Oc4cn[nH]c4)nc3C(C)(C)S(C)(=O)=O)N21 | 6.30 to 7.00
* C[C@@H]1COC[C@H]2COc3c(nc(Nc4nc[nH]n4)nc3C(C)(C)S(C)(=O)=O)N21 | 7.00 to 8.00
* C[C@@H]1COC[C@H]2COc3c(nc(-c4ccc5c(c4)CCNC5)nc3C(C)(C)S(C)(=O)=O)N21 | 6.30 to 7.00
* C[C@@H]1COC[C@H]2COc3c(nc(-c4c(O)cnc5[nH]ccc45)nc3C3(S(C)(=O)=O)CC3)N21 | > 9.00

###

Target: ATR/ATRIP (Homo sapiens, UniProt Q13535)
Construct: human ATR, full length, GenBank ID: NM_001184.3; p53: Sf21 insect cells
Experiment: ATR/ATRIP kinase assay (TR-FRET, p53 phosphorylation)
Type: biochemical
Settings: Table 1, class symbols; read-out: ATR-ATRIP IC50
pIC50: −log10 of the molar value.
readout_kind: pIC50

• C[C@@H]1COC[C@H]2COc3c(nc(C(=O)Nc4ccnnc4)nc3C(C)(C)S(C)(=O)=O)N21 [A57] = 4.52 to 6.30
• C[C@@H]1COC[C@H]2COc3c(nc(-c4cccc(CO)c4)nc3C(C)(C)S(C)(=O)=O)N21 [A41] = > 9.00
• C[C@H](O)CNC(=O)c1nc2c(c(C(C)(C)S(C)(=O)=O)n1)OC[C@@H]1COC[C@@H](C)N21 [A54] = 4.52 to 6.30
• C[C@@H]1COC[C@H]2COc3c(nc(-c4ccc(-c5ncc[nH]5)cc4)nc3C(C)(C)S(C)(=O)=O)N21 [A44] = > 9.00
• CC(=O)Nc1nc2ccccc2n1-c1nc2c(c(C(C)(C)S(C)(=O)=O)n1)OC[C@@H]1COC[C@@H](C)N21 [A34] = > 9.00
• C[C@@H]1COC[C@H]2COc3c(nc(-c4ccc(CCN)cc4)nc3C(C)(C)S(C)(=O)=O)N21 [A45] = 7.00 to 8.00
• Cc1nc2ccccc2n1-c1nc2c(c(C(C)(C)S(C)(=O)=O)n1)OC[C@@H]1COC[C@@H](C)N21 [A24] = > 9.00
• CNc1nc2ccccc2n1-c1nc2c(c(C(C)(C)S(C)(=O)=O)n1)OC[C@@H]1COC[C@@H](C)N21 [A15] = > 9.00
• C[C@@H]1COC[C@H]2COc3c(nc(-c4ccc(C5(N)COC5)cc4)nc3C(C)(C)S(C)(=O)=O)N21 [A62] = 4.52 to 6.30
